Could you please report measured Delta mean survival time for the items listed next?
# Test system: Plasmodium berghei
# assay_summary: Antimalarial activity Plasmodium berghei infected mice (Mus musculus) after 640 mg/kg subcutaneous dose
# Assay type: functional
// keep it numeric: no unit symbol after the value

Reported Delta mean survival time, compound C=CCn1c2c(c(=O)c3cc(Cl)ccc31)C(=O)CC(c1ccc(C(F)(F)F)cc1)C2 (centres undefined) : ____
15

So what does the record say about Delta mean survival time for O=C1c2c(nc3ccc(Cl)cc3c2O)CC(c2ccc(Cl)c(Cl)c2)C1c1ccccc1 (centres undefined) ?
1.4

Given the entry N=C1CC(c2cccc(C(F)(F)F)c2)Cc2c1c(=O)c1cc(Cl)ccc1n2O (centres undefined) , report its measured Delta mean survival time.
8.2

Form field: reported Delta mean survival time of CC1/C(=N\CCCN(C)C)c2c(n(O)c3ccc(Cl)cc3c2=O)CC1c1ccc(Cl)cc1Cl (centres undefined)
1.8

Consider the compound CCN(CC)CCC/N=C1\CC(c2cc(OC)c(OC)c(OC)c2)Cc2c1c(=O)c1cc(Cl)ccc1n2O (centres undefined) and give its measured Delta mean survival time.
6.1

# input compound: CCN(CC)CCCCCCC/N=C1\CC(c2ccc(C(F)(F)F)cc2)Cc2nc3ccc(Cl)cc3c(O)c21 (centres undefined) ; wanted: its Delta mean survival time
0.1

Would you mind telling me what Delta mean survival time value was observed for O=C1CC(c2ccc(Cl)c(Cl)c2)Cc2c1c(=O)c1ccccc1n2O (centres undefined) ?
12.6

GET /values?readout=Delta mean survival time&item= CCn1c2c(c(=O)c3cc(Cl)ccc31)C(=O)CC(c1ccc(C(F)(F)F)cc1)C2 (centres undefined)
0

Item O=C1CC(c2c(Cl)cccc2Cl)Cc2c1c(=O)c1cc(Cl)ccc1n2O (centres undefined) has what recorded Delta mean survival time?
11.2

Given the entry CCN(CC)CC(C)(C)C/N=C1\CC(c2ccc(C(F)(F)F)cc2)Cc2nc3ccc(Cl)cc3c(O)c21 (centres undefined) , report its measured Delta mean survival time.
1.3

Using the record for CCc1ccc2nc3c(c(O)c2c1)C(=O)CC(c1ccc(C(F)(F)F)cc1)C3 (centres undefined) , report its Delta mean survival time.
0.2

# Delta mean survival time lookup, item CN(C)CCC/N=C1\CC(c2ccc(C(F)(F)F)cc2)Cc2nc3ccc(Br)cc3c(O)c21 (centres undefined)
25.7

What measured Delta mean survival time goes with O=C1CC(c2ccc(C(F)(F)F)cc2)Cc2nc3c(Cl)cc(Cl)cc3c(O)c21 (centres undefined) ?
0

Query: Delta mean survival time; subject: C/N=C1\CC(c2ccc(Cl)c(Cl)c2)Cc2c1c(=O)c1cc(Cl)ccc1n2O (centres undefined)
10.8

Which Delta mean survival time value is on record for O=C1CC(c2ccccc2Cl)Cc2c1c(=O)c1cc(Cl)ccc1n2O (centres undefined) ?
9

# input compound: O=C1CC(c2ccc(C(F)(F)F)cc2)Cc2c1c(=O)c1cc(Cl)ccc1n2Cc1ccccc1 (centres undefined) ; wanted: its Delta mean survival time
0.3

Can you share its Delta mean survival time? I mean this compound: O=C1CC(c2cccc(Br)c2)Cc2c1c(=O)c1cc(Cl)ccc1n2O (centres undefined)
7.9

Quick check: Delta mean survival time of O=c1c2c(n(O)c3ccc(Cl)cc13)CC(c1cccc(C(F)(F)F)c1)C/C2=N\CCCN1CCCC1 (centres undefined) ?
25.6

Which Delta mean survival time is listed for O=C1CC2(CCCCC2)Cc2nc3ccc(Cl)cc3c(O)c21 ?
0.2

Returns the measured Delta mean survival time for the input compound. Input: O=C1CC(c2ccc(Cl)cc2Cl)Cc2nc3c(Cl)ccc(Cl)c3c(O)c21 (centres undefined)
-0.1

I am curious: what Delta mean survival time value has been reported for COc1ccc2nc3c(c(O)c2c1)C(=O)CC(c1ccc(C(F)(F)F)cc1)C3 (centres undefined) ?
4.4

GET /values?readout=Delta mean survival time&item= CN(C)CCC/N=C1\CC(C)(C)Cc2c1c(=O)c1cc(Cl)ccc1n2O
2.8

Which Delta mean survival time is listed for CN(C)CCC/N=C1\CC(c2ccncc2)Cc2nc3ccc(Cl)cc3c(O)c21 (centres undefined) ?
4.3

Please report the recorded Delta mean survival time for O=C1CC(c2ccc(C(F)(F)F)cc2)Cc2nc3ccc(C(F)(F)F)cc3c(O)c21 (centres undefined) .
-0.1

Consider the compound shown here: O=C1CC(c2ccc(Cl)cc2Cl)Cc2nc3c(Cl)cccc3c(O)c21 (centres undefined) What is its recorded Delta mean survival time?
2

What measured Delta mean survival time goes with CC1C(=O)c2c(nc3ccc(Cl)cc3c2O)CC1c1ccc(Cl)c(C(F)(F)F)c1 (centres undefined) ?
5.7

Data request, read-out Delta mean survival time, for CSCCC/N=C1\CC(c2ccc(Cl)c(Cl)c2)Cc2c1c(=O)c1cc(Cl)ccc1n2O (centres undefined)
3.7

Recorded Delta mean survival time for CCN(CC)CCO/N=C1\CC(c2ccc(Cl)c(Cl)c2)Cc2c1c(=O)c1cc(Cl)ccc1n2O (centres undefined) , please?
8.7

// Delta mean survival time lookup, key: O=C1CC(c2ccc(C(F)(F)F)cc2)Cc2nc3ccc(I)cc3c(O)c21 (centres undefined)
0.4

Reported Delta mean survival time for O=C1CC(c2ccccn2)Cc2nc3ccc(Cl)cc3c(O)c21 (centres undefined) : what is it?
4.4

Name the reported Delta mean survival time value associated with the compound CN(C)CCC/N=C1\CC(c2ccncc2)Cc2c1c(=O)c1cc(Cl)ccc1n2O (centres undefined)
1.4

Data request, read-out Delta mean survival time, for CCN(CC)CC(C)(C)C/N=C1\CC(c2cc(OC)c(OC)c(OC)c2)Cc2c1c(=O)c1cc(Cl)ccc1n2O (centres undefined)
4.7

Reported Delta mean survival time for O=C1CC(c2ccc(Cl)c(Cl)c2)Cc2c1c(=O)c1c(Cl)c(Cl)ccc1n2O (centres undefined) : what is it?
0.3

Reported Delta mean survival time, compound CCCCn1c2c(c(=O)c3cc(Cl)ccc31)C(=O)CC(c1ccc(C(F)(F)F)cc1)C2 (centres undefined) : ____
0.4

// query Delta mean survival time value for entry CCC1C(=O)c2c(nc3ccc(Cl)cc3c2O)CC1c1ccc(C(F)(F)F)cc1 (centres undefined)
1.6

So what does the record say about Delta mean survival time for COc1cc(C2C/C(=N\CCCN3CCCC3)c3c(n(O)c4ccc(Cl)cc4c3=O)C2)cc(OC)c1OC (centres undefined) ?
6.4

Which Delta mean survival time is listed for O=C1CC(c2ccc(Cl)c(Cl)c2)Cc2nc3ccc(Cl)cc3c(O)c21 (centres undefined) ?
11.2

For the compound shown here, CC1/C(=N\CCCN(C)C)c2c(nc3ccc(Cl)cc3c2O)CC1c1ccc(Cl)cc1Cl (centres undefined) , give the reported Delta mean survival time.
2.9

# get_value(readout='Delta mean survival time', item= CN(C)CCC/N=C1\CC(c2ccc(C(F)(F)F)cc2)Cc2nc3c(Br)cc(Br)cc3c(O)c21 (centres undefined) )
0.4
